# protocol.text: Study 1: open-label 2-way crossover relative bioavailability, tablet vs oral liquid formulation
# Type: in vivo, human
# measurement.parameters: Study 1, Treatment B: 25 mL × 0.4 mg/mL liquid formulation
measurement.name: Cmax Adj.Geo.Mean

molecular.string	measurement.name	experimental.result
COc1ccc(-n2nc(C(N)=O)c3c2C(=O)N(c2ccc(N4CCCCC4=O)cc2)CC3)cc1	Cmax Adj.Geo.Mean	0.287 µg/mL

---

# protocol.text: Study 3: open-label 3-way crossover, liquid formulation oral vs NGT with Boost Plus vs crushed tablet via NGT
# Format: in vivo, human
# measurement.parameters: human, plasma, po, 5 mg, Study 3, TRT B: 5 mg oral liquid formulation (0.4 mg/mL × 12.5 mL) after Boost Plus via NGT; read-out: T1/2 Mean (converted)
measurement.name: half-life

molecular.string	experimental.result
COc1ccc(-n2nc(C(N)=O)c3c2C(=O)N(c2ccc(N4CCCCC4=O)cc2)CC3)cc1	574 min

---

# protocol.text: Study 3: open-label 3-way crossover, liquid formulation oral vs NGT with Boost Plus vs crushed tablet via NGT
# Assay type: in vivo, human
# measurement.parameters: human, plasma, po, 5 mg, Study 3, TRT B: 5 mg oral liquid formulation (0.4 mg/mL × 12.5 mL) after Boost Plus via NGT; read-out: AUCinf Geo. Mean (% CV)

molecular.string	AUC(0-inf) (ng·h/mL)
COc1ccc(-n2nc(C(N)=O)c3c2C(=O)N(c2ccc(N4CCCCC4=O)cc2)CC3)cc1	1120

---

# protocol.text: Study 2: open-label 3-way crossover, liquid formulation oral vs NGT with D5W or infant formula flush
# Assay type: in vivo, human
# measurement.parameters: human, plasma, other: via nasogastric tube (NGT), 5 mg, Study 2, Treatment B: liquid formulation via NGT, D5W flush; read-out: AUC(0-T) Adj.Geo.Mean
measurement.name: AUC(0-t) (ng·h/mL)

molecular.string	measurement.name	experimental.result
COc1ccc(-n2nc(C(N)=O)c3c2C(=O)N(c2ccc(N4CCCCC4=O)cc2)CC3)cc1	AUC(0-t)	1230

---

# protocol.text: Study 2: open-label 3-way crossover, liquid formulation oral vs NGT with D5W or infant formula flush
# Assay type: in vivo, human
# measurement.parameters: Study 2, Treatment A: 5 mg (12.5 mL) liquid formulation by mouth via oral syringe

compound	Cmax Geo. Mean
COc1ccc(-n2nc(C(N)=O)c3c2C(=O)N(c2ccc(N4CCCCC4=O)cc2)CC3)cc1 [Apixaban]	189 ng/mL

---

# protocol.text: Study 1: open-label 2-way crossover relative bioavailability, tablet vs oral liquid formulation
# Format: in vivo, human
# measurement.parameters: human, plasma, oral, 10 mg, Study 1, Treatment B: 25 mL × 0.4 mg/mL liquid formulation; read-out: AUCinf Adj.Geo.Mean
measurement.name: AUC(0-inf)

molecular.string	experimental.result
COc1ccc(-n2nc(C(N)=O)c3c2C(=O)N(c2ccc(N4CCCCC4=O)cc2)CC3)cc1	2850 ng·h/mL

---

# protocol.text: Study 2: open-label 3-way crossover, liquid formulation oral vs NGT with D5W or infant formula flush
# Format: in vivo, human
# measurement.parameters: human, plasma, po, 5 mg, Study 2, Treatment C: 5 mg (12.5 mL) liquid formulation via NGT followed by 60 mL of infant formula via NGT; read-out: AUCinf Geo. Mean
measurement.name: AUC(0-inf) (ng·h/mL)

molecule	measurement.name	readout.unit	experimental.result
COc1ccc(-n2nc(C(N)=O)c3c2C(=O)N(c2ccc(N4CCCCC4=O)cc2)CC3)cc1 [Apixaban]	AUC(0-inf)	ng·h/mL	1180

Provenance of the data: patent US20160263097A1
